Recorded values, source patent US8859580B2.

molecular target: 11β-HSD1 (Homo sapiens, UniProt P28845); construct: detecting cortisol generated from cortisterone by human liver microsomes; from tissue; host or cells: human liver microsomes; assay: In vitro inhibition of 11β-HSD1, HTRF detection of cortisol generated from cortisone by human liver microsomes; format: biochemical; conditions: 11β-HSD IC50 (nM), 1 hour at 37° C., pH 6.0, NADPH 200 μM, cortisone 80 nM, inhibition relative to carbenoxolone signal
Sequence (P28845 whole entry): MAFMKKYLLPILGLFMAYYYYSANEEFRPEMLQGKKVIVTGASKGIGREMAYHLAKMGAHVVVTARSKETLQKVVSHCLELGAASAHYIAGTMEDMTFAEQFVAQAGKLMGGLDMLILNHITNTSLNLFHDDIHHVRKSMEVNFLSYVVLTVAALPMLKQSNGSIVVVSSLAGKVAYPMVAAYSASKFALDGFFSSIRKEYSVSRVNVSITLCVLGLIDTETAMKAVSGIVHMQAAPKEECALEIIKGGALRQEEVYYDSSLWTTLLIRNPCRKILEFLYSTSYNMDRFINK
Reported metric: IC50
Write your answer as a measured quantity: the number, then the unit.

Prompt: Which value of IC50 has been reported for NC(=O)C12CCN(C(=O)c3ccc4nc[nH]c4c3)C(Cc3ccc(O)cc31)C2 (stereo not shown) in the records?
Completion: 5710 nM

Prompt: Which value of IC50 has been reported for `CC1(C)[C@H]2Cc3cc(-c4ccccc4)ccc3[C@]1(C)CCN2C(=O)c1ccc2nc[nH]c2c1` in the records?
Completion: 1460 nM

Prompt: Which value of IC50 has been reported for CC(O)c1cccc(C(=O)N2CC[C@@]3(C)c4ccccc4C[C@@H]2C3(C)C)c1 (stereo partly shown) in the records?
Completion: 162 nM

Prompt: Which value of IC50 has been reported for `Cn1c(=O)[nH]c2cc(C(=O)N3CC[C@@]4(C)c5cccc(O)c5C[C@@H]3C4(C)C)ccc21` in the records?
Completion: 1730 nM

Prompt: Which value of IC50 has been reported for `CCOC(=O)c1ccc2c(c1)[C@]1(C)CCN(C(=O)c3ccc4nc[nH]c4c3)[C@H](C2)[C@H]1C` in the records?
Completion: 711 nM

Prompt: Which value of IC50 has been reported for `Cn1cc(C(=O)N2CC[C@@]3(C)c4cccc(O)c4C[C@@H]2C3(C)C)c2ccccc21` in the records?
Completion: 137 nM

Prompt: Which value of IC50 has been reported for `CC1(C)[C@H]2Cc3c(O)cccc3[C@]1(C)CCN2C(=O)c1ccc(CN2CCCCC2)cc1` in the records?
Completion: 5040 nM

Prompt: Which value of IC50 has been reported for `CC1(C)[C@H]2Cc3ccccc3[C@]1(C)CCN2C(=O)c1ccc(N)cc1` in the records?
Completion: 47 nM

Prompt: Which value of IC50 has been reported for `CC(C)(C)c1nc2cc3c(cc2[nH]1)[C@]1(C)CCN(C(=O)c2ccc4nc[nH]c4c2)[C@H](C3)C1(C)C` in the records?
Completion: 35 nM

Prompt: Which value of IC50 has been reported for `CC1(C)[C@H]2Cc3ccccc3[C@]1(C)CCN2C(=O)c1ccc2cn[nH]c2c1` in the records?
Completion: 150 nM

Prompt: Which value of IC50 has been reported for `CC1(C)[C@H]2Cc3c(O)cccc3[C@]1(C)CCN2C(=O)c1ccc(Cn2ccnc2)cc1` in the records?
Completion: 297 nM

Prompt: Which value of IC50 has been reported for `C[C@@H]1[C@H]2Cc3cc(C#N)c(O)cc3[C@]1(C)CCN2C(=O)c1ccc2nc[nH]c2c1` in the records?
Completion: 106 nM

Prompt: Which value of IC50 has been reported for `COC(=O)c1cccc(C(=O)N2CC[C@@]3(C)c4cccc(O)c4C[C@@H]2C3(C)C)c1` in the records?
Completion: 1400 nM

Prompt: Which value of IC50 has been reported for COc1cc2c(cc1O)CC1N(C(=O)c3ccc4nc[nH]c4c3)CCC2(C)C1(C)C (stereo not shown) in the records?
Completion: 47 nM

Prompt: Which value of IC50 has been reported for `CC1(C)[C@H]2Cc3ccccc3[C@]1(C)CCN2C(=O)c1ccc2nccnc2c1` in the records?
Completion: 438 nM

Prompt: Which value of IC50 has been reported for COC12CCN(C(=O)c3ccc4nc[nH]c4c3)C(Cc3ccccc31)C2(C)C (stereo not shown) in the records?
Completion: 86 nM
